Test system: FGFR4-translocated Ba/F3 cells
Experiment: cells
Conditions: Mus musculus, BaF3, 72 h, read-out: IC50 proliferation, FGFR4 Ba/F3 cells
reportedMetric: pIC50
Remember the convention: pIC50 equals -log10 of concentration in molar.

Enquiry: I am curious: what pIC50 value has been reported for CCN1C(=O)N(c2c(F)c(OC)cc(OC)c2F)Cc2cnc3[nH]c(CN4CCOCC4)cc3c21 ?
Return: 7.92
